Where these numbers come from: patent US20050267133A1

Target: GSK-3β (Homo sapiens)
Sequence (P49841 whole entry, species assumed): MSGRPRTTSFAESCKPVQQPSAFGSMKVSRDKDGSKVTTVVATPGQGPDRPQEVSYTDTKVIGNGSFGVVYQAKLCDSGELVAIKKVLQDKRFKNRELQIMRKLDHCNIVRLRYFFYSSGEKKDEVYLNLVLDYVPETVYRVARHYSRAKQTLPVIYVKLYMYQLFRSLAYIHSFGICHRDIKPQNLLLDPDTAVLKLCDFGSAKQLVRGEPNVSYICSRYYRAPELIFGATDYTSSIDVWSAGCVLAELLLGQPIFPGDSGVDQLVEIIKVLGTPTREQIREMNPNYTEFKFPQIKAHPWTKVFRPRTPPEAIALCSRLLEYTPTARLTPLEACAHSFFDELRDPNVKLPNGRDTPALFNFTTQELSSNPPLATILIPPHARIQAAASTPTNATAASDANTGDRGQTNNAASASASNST
Test: GSK3 scintillation proximity assay (SPA) kinase assay
Type: biochemical
Settings: 20 nM kinase, 2.5 uM ATP, biotinylated glycogen synthase peptide, 40 minutes at room temperature; -log IC50 in Molar; read-out: GSK-3 pIC50 (converted)
This listing pairs compounds with measured IC50.

Worked examples, 5 compounds total:
[[record]]
query_smiles = "CN(C)c1ccc(/C=N/Nc2ncnc3c2cnn3-c2ccccc2)cn1"
readout_kind = "IC50"
reported_measurement = "1000 to 10000 nM"

[[record]]
query_smiles = "CN(C)CCNC(=O)c1cccc(/C=N/Nc2ncnc3c2cnn3-c2ccccc2)c1"
readout_kind = "IC50"
reported_measurement = "< 100 nM"

[[record]]
query_smiles = "O=C(O)c1cccc(/C=N/Nc2ncnc3c2cnn3-c2ccccc2)c1"
readout_kind = "IC50"
reported_measurement = "1000 to 10000 nM"

[[record]]
query_smiles = "C(=NNc1ncnc2c1cnn2-c1ccccc1)c1cccnc1"
readout_kind = "IC50"
reported_measurement = "< 100 nM"

[[record]]
query_smiles = "CN(C)CCNC(=O)c1ccc(/C=N/Nc2ncnc3c2cnn3-c2ccccc2)cc1"
readout_kind = "IC50"
reported_measurement = "< 100 nM"


Query :: Would you kindly share the measured IC50 for "Cc1ccc(/C=N/Nc2ncnc3c2cnn3-c2ccccc2)o1" ?
Result :: 100 to 1000 nM

Query :: Would you kindly share the measured IC50 for "O=C(NCCCN1CCOCC1)c1ccc(/C=N/Nc2ncnc3c2cnn3-c2ccccc2)cc1" ?
Result :: < 100 nM

Query :: Request the reported IC50 associated with "Oc1cccc(/C=N/Nc2ncnc3c2cnn3-c2ccccc2)c1"
Result :: 100 to 1000 nM

Query :: Record request: IC50 value, item "O=S(=O)(NCCN1CCOCC1)c1ccc(/C=N/Nc2ncnc3c2cnn3-c2ccccc2)cc1"
Result :: < 100 nM

Query :: Data request, read-out IC50, for "[O-][n+]1ccc(/C=N/Nc2ncnc3c2cnn3-c2ccccc2)cc1"
Result :: < 100 nM

Query :: Find the recorded IC50 belonging to "COc1cc(/C=N/Nc2ncnc3c2cnn3-c2ccccc2)cc(C(=O)O)c1O" and report it.
Result :: 100 to 1000 nM

Query :: Which IC50 is reported for this compound? "CS(=O)(=O)CCNC(=O)c1ccc(/C=N/Nc2ncnc3c2cnn3-c2ccccc2)cc1"
Result :: < 100 nM

Query :: So what's the measured IC50 for this one? "CN(C)CCN1CCN(C(=O)c2ccc(/C=N/Nc3ncnc4c3cnn4-c3ccccc3)cc2)CC1"
Result :: 100 to 1000 nM

Query :: Give the measured IC50 of "O=C(NCCN1CCOCC1)c1cccc(/C=N/Nc2ncnc3c2cnn3-c2ccccc2)c1" .
Result :: 100 to 1000 nM

Query :: Reported IC50, compound "CN(CCc1ccccn1)C(=O)c1ccc(/C=N/Nc2ncnc3c2cnn3-c2ccccc2)cc1" : ____
Result :: 100 to 1000 nM
